target: full length recombinant Pim-2 protein (Homo sapiens, UniProt Q9P1W9); construct: by full length recombinant Pim-1, Pim-2, or Pim-3 protein; hexahistidine tag followed by a thrombin cleavage site (N); made in house; host or cells: Sf9 (baculovirus) or E. coli (pET28); test: Pim-2 enzyme assay (HTRF, phosphorylation of biotinylated-BAD (S112) peptide); format: biochemical; conditions: read-out: Pim2_IC50
Sequence (Q9P1W9 whole entry): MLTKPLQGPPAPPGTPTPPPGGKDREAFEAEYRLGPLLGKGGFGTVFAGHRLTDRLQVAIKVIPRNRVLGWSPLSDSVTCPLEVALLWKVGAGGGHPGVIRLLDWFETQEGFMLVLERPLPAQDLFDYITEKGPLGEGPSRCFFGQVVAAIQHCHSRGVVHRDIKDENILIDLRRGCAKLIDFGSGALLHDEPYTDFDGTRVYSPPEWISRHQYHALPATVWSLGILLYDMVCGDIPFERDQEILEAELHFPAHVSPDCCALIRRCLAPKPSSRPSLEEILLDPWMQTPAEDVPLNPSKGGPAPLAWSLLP
Structures can show the parent of a compound that is named as a salt.
# IC50 per record follows

compound | IC50
OCCc1ccc2[nH]nc(-c3cncc(O[C@H]4CNCCC45CC5)n3)c2c1 [Example 270, hydrochloride] | 166 nM
CN(C)C(=O)c1ccc2[nH]nc(-c3cncc(N4CCC(N)CC4)n3)c2c1 [Example 484] | > 1000 nM
CCCOc1c(OC)cc(C#N)cc1-c1ccc2[nH]cc(-c3cncc(O[C@@H]4CCCNC4)n3)c2c1 [Example 348] | > 1000 nM

* * *

# pIC50 per record follows
molecular target: Pim-2 stably transfected into the U2OS human osteogenic sarcoma line (Homo sapiens); construct: expressed in transfected cells; host or cells: U2OS human osteogenic sarcoma line; test: Pim cell assay, phospho-BAD normalized against total BAD, U2OS stably transfected with Pim-2; assay type: cell-based; details: U2OS cells stably transfected with Pim-2, phospho-BAD; high dose […]; read-out: Pim2_Cell_IC50; further: high dose 31.6 µM
Sequence (Q9P1W9 whole entry): as above
pIC50: −log10 of the molar value.

entry_smiles | pIC50
NC1CCN(c2cncc(-c3n[nH]c4ccc(-c5ccccc5)cc34)n2)CC1 | < 4.50
COc1cccc(-c2ccc3[nH]nc(-c4cncc(N5CCC(N)CC5)n4)c3c2)n1 | < 4.50
N[C@@H]1CCN(c2cncc(-c3c[nH]c4ccc(-c5c(F)cccc5F)cc34)n2)C1 | < 4.50
NC1CCN(c2cncc(-c3n[nH]c4ccc(N5CCCCC5)cc34)n2)CC1 | < 4.50
CN1C(=O)Cc2cc(-c3ccc4[nH]nc(-c5cncc(N6CCC(N)CC6)n5)c4c3)ccc21 | < 4.50
CC(C)c1ccnc(-c2ccc3[nH]nc(-c4cncc(O[C@@H]5CCCNC5)n4)c3c2)n1 | < 4.50
CC(C)(C)Nc1cncc(-c2n[nH]c3ccc(-c4c(F)cccc4F)cc23)n1 | < 4.50
NC1CCN(c2cncc(-c3n[nH]c4ccc(-c5cccc(F)c5)cc34)n2)CC1 | < 4.50
CN(c1cncc(-c2n[nH]c3ccc(-c4c(F)cccc4F)cc23)n1)C1CCNCC1 | 4.96
NC1CCN(c2cncc(-c3n[nH]c4ccc(-c5cnc6[nH]ccc6c5)cc34)n2)CC1 | < 4.50
N#Cc1cccc(-c2ccc3[nH]nc(-c4cncc(N5CCC(N)CC5)n4)c3c2)c1 | < 4.50
